assayed system: human FAK (Homo sapiens (Human), UniProt Q05397)
Sequence (Q05397 whole entry): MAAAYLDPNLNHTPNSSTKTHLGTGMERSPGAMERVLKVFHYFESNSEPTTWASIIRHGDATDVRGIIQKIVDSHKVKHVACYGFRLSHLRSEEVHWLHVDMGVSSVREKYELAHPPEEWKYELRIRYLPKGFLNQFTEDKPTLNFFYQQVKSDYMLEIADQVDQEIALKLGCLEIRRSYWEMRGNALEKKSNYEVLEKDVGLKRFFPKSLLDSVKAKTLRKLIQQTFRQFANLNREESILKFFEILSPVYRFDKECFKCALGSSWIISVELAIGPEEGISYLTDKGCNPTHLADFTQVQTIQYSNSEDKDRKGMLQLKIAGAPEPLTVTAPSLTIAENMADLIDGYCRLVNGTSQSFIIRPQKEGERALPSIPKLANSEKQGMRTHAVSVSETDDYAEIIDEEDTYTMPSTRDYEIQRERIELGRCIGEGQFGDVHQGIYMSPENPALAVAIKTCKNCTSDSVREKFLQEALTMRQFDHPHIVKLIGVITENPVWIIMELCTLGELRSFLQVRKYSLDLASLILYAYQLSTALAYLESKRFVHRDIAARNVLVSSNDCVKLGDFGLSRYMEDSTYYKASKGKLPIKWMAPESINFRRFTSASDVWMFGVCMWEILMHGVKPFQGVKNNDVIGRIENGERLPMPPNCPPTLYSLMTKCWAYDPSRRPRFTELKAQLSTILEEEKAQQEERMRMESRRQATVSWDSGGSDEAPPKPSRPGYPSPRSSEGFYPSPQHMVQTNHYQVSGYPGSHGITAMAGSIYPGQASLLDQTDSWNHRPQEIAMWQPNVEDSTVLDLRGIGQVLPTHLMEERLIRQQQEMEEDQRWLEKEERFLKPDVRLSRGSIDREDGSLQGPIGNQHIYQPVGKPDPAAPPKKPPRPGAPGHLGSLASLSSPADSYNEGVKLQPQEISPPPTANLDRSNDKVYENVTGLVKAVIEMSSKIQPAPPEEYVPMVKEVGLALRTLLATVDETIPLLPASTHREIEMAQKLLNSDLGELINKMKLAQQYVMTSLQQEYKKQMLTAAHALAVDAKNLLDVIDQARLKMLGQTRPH
protocol description: biochemical

compound: CS(=O)(=O)c1ccc(-c2cccn3nc(Nc4cccc([C@@H]5CCNC[C@@H]5O)c4)nc23)cc1 (racemic)
IC50, nM: 1940

---

assayed system: human FAK (Homo sapiens (Human))
conditions: read-out: FAK IC50
pIC50: −log10 of the molar value.
Label scheme for pIC50: lower than 6 is not satisfied, 6 and above is satisfied.

smiles entry: CS(=O)(=O)c1ccc(-c2cccc3nc(Nc4ccc(OCCN5CCCC5)cc4)nn23)cc1
class: satisfied

smiles entry: CN1CCN(c2ccc(Nc3nc4c(-c5cccc(S(C)(=O)=O)c5)cccn4n3)cc2)CC1
class: not satisfied

smiles entry: CS(=O)(=O)c1ccc(-c2cccn3nc(Nc4cnn(CCN5CCCC5)c4)nc23)cc1
class: not satisfied

smiles entry: COc1ncccc1-c1cccn2nc(Nc3ccc4ncccc4c3)nc12
class: not satisfied

smiles entry: COc1ccccc1-c1cccn2nc(Nc3cccc(N4CCN(C)CC4)c3)nc12
class: not satisfied

smiles entry: CS(=O)(=O)c1ccc(-c2cccn3nc(Nc4ccc(N5CCC(N6CCOCC6)CC5)cc4)nc23)cc1
class: satisfied

smiles entry: FC(F)(F)c1ccc(-c2cccn3nc(Nc4cnn(CCN5CCCC5)c4)nc23)cc1
class: not satisfied

---

assayed system: UniProt O60674
Sequence (O60674 815-1132): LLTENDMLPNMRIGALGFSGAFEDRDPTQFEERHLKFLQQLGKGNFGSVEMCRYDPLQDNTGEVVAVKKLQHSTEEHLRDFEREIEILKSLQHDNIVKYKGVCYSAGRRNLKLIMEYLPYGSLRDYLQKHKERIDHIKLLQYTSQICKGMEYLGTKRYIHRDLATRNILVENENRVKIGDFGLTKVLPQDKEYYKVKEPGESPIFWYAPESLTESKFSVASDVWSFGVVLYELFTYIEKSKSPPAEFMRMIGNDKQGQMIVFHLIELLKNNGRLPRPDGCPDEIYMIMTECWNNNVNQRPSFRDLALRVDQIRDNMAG
conditions: read-out: JAK2 IC50

smiles entry: CN1CCN(c2ccc(Nc3nc4c(NCc5ccccc5N(C)S(C)(=O)=O)cccn4n3)cc2)CC1
assayed system: UniProt O60674
IC50 / µM: 0.0291
--
smiles entry: CN1CCN(c2ccc(Nc3nc4c(-c5ccc(S(C)(=O)=O)cc5)cccn4n3)cc2)CC1
assayed system: UniProt O60674
IC50 / µM: 0.0024
--
smiles entry: COc1ccc(Nc2nc3c(C4=CCN(S(C)(=O)=O)CC4)cccn3n2)cc1
assayed system: UniProt O60674
IC50 / µM: 0.001
--
smiles entry: COc1ccc(C(F)(F)F)cc1-c1cccn2nc(Nc3ccc(N4CCN(C)CC4)cc3)nc12
assayed system: UniProt O60674
IC50 / µM: 0.0313

---

assayed system: human FAK (Homo sapiens (Human))
conditions: read-out: FAK IC50
pIC50: −log10 of the molar value.
Recorded pIC50 by entry

smiles entry: CS(=O)(=O)c1ccc(-c2cccc3nc(Nc4cccc(CN5CCS(=O)(=O)CC5)c4)nn23)cc1
assayed system: human FAK (Homo sapiens (Human))
pIC50: 6.00

smiles entry: CS(=O)(=O)c1cccc(-c2cccc3nc(Nc4ccc(N5CCOCC5)cc4)nn23)c1
assayed system: human FAK (Homo sapiens (Human))
pIC50: 5.82

smiles entry: C[C@H](O)CN1CCN(c2cccc(Nc3nc4c(-c5ccc(S(C)(=O)=O)cc5)cccn4n3)c2)CC1
assayed system: human FAK (Homo sapiens (Human))
pIC50: 6.03

---

assayed system: human FAK (Homo sapiens (Human), UniProt Q05397)
conditions: read-out: FAK IC50
IC50 reference
reported endpoint: IC50 (nM)

compound: c1cncc(-c2cccn3nc(Nc4ccc(N5CCOCC5)cc4)nc23)c1 [Example 6]
unit spec: nM
endpoint value: 3000

compound: CN1CCC(c2ccc(Nc3nc4c(Nc5ccccc5S(C)(=O)=O)cccn4n3)cc2)CC1 [Example 125]
unit spec: nM
endpoint value: 2050

compound: CN1CCN(c2cccc(Nc3nc4c(Nc5ccccc5CN(C)S(C)(=O)=O)cccn4n3)c2)CC1 [Example 172]
unit spec: nM
endpoint value: 3000

compound: CN1CCN(C2CCN(c3cccc(Nc4nc5c(-c6ccc(S(C)(=O)=O)cc6)cccn5n4)c3)CC2)CC1 [Example 58]
unit spec: nM
endpoint value: 2390

compound: Fc1ccc(-n2cc(-c3cccn4nc(Nc5ccc(C6CCNCC6)cc5)nc34)cn2)cc1 [Example 282]
unit spec: nM
endpoint value: 999

compound: COc1ncc(C(F)(F)F)cc1-c1cccn2nc(Nc3ccc(C4CCNCC4)cc3)nc12 [Example 278]
unit spec: nM
endpoint value: 10000
